I'd be grateful if you could share measured EC50 of hC3 cleavage for these entries.
ASSAYED TARGET: plasma purified human complement protein C3 (human) (UniProt P01024)
Sequence (P01024 23-667, chain 1 of 2): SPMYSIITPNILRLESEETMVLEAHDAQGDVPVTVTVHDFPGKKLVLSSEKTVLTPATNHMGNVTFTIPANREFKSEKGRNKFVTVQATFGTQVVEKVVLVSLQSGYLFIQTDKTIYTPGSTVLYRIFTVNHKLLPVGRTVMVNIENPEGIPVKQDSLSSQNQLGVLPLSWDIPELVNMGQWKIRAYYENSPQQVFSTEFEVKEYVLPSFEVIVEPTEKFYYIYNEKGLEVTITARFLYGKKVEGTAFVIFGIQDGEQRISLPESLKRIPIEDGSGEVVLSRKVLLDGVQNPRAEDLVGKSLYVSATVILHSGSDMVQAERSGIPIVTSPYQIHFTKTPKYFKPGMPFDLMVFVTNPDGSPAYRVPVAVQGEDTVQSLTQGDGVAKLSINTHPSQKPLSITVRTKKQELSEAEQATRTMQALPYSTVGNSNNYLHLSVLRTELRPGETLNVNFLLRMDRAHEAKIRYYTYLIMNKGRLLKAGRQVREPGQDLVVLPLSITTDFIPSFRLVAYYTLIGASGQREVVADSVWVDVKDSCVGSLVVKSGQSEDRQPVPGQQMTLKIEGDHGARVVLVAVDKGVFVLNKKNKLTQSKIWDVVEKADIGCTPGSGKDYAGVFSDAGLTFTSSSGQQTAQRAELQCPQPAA
Sequence (P01024 672-1663, chain 2 of 2): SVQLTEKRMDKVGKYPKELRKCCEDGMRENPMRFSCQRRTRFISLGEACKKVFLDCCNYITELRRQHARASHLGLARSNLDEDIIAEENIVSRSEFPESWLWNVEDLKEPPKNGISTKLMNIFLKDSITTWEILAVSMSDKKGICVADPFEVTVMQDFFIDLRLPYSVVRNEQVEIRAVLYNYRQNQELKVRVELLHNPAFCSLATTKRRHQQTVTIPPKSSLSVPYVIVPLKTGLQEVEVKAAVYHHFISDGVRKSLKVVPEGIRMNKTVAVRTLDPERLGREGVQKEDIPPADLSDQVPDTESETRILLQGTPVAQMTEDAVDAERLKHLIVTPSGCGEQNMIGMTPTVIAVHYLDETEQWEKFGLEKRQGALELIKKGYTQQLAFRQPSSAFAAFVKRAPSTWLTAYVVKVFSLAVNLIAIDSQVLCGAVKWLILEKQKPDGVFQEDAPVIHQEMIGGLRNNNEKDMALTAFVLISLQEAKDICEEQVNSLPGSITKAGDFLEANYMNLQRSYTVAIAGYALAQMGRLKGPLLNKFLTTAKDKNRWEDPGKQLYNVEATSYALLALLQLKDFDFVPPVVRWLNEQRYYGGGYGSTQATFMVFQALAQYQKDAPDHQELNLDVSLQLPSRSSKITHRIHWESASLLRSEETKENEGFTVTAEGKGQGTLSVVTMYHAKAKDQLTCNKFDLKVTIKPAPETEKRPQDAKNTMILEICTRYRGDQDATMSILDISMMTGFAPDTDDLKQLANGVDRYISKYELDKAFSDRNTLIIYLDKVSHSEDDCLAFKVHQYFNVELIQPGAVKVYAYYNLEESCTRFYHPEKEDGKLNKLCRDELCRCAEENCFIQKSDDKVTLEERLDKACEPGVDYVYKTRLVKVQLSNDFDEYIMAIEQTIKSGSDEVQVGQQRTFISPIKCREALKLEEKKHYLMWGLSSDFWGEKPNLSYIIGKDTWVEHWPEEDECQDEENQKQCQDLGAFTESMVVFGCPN
ASSAY OVERVIEW: cell-based or functional assay
Give bare numbers, in nM.

MTSP-1 I41R/ins97aE/F97T/T98G/F99L/C122S/G151N/Q175S/Q192D (enzyme) VVGGTDADEGEWPWQVSLHALGQGHRCGASLISPNWLVSAAHCYIDDRGFRYSDPTQWTAFLGLHDQSQRSAPGVQERRLKRIISHPFFNDTEGLDYDIALLELEKPAEYSSMVRPISLPDASHVFPAGKAIWVTGWGHTQYGGTNALILQKGEIRVINQTTCENLLPQSITPRMMCVGFLSGGVDSCDGDSGGPLSSVEADGRIFQAGVVSWGDGCAQRNKPGVYTRLPLFRDWIKENTGV    2080

Okay, next one:
Documented EC50 of hC3 cleavage of MTSP-1 Q38H/I41S/D60bT/F60eS/ins97aV/F97D/T98P/F99L/C122S/G151H/Q175L/Q192E (enzyme) VVGGTDADEGEWPWQVSLHALGHGHSCGASLISPNWLVSAAHCYIDTRGSRYSDPTQWTAFLGLHDQSQRSAPGVQERRLKRIISHPFFNDDVPLDYDIALLELEKPAEYSSMVRPISLPDASHVFPAGKAIWVTGWGHTQYGGTHALILQKGEIRVINQTTCENLLPQLITPRMMCVGFLSGGVDSCEGDSGGPLSSVEADGRIFQAGVVSWGDGCAQRNKPGVYTRLPLFRDWIKENTGV : 29.8

Ref: patent US20240018502A1
